assay: gradient 5% acetonitrile 3 min, to 50% in 2 min, to 85% in 15 min, held 3 min, 100 µL/min; conditions: column: Zorbax Extend-C18 2.1 x 50 mm; eluents: water / acetonitrile, 0.1% formic acid
Give measured RP-LC retention time for each item. Keep answers brief.
I'd appreciate it if you wrote the number followed by its unit.

[[record]]
molecule = "CCOc1ccc(CNC(=O)COc2nc(CC)nc3oc(C)c(C)c23)cc1"
result = "993 s"


Please state RP-LC retention time for every molecule in the list that follows.
1. O=C(c1ccc(Br)o1)N1CCC(n2cnnc2C2CC2)CC1
2. CCN1c2ccc(C)cc2C(=O)NC12CCN(C(=O)c1ccc(F)c(F)c1)CC2
3. CCn1c(=O)sc2cc(S(=O)(=O)N3CCC(C(=O)Nc4ccc(F)cc4)CC3)ccc21
4. CCc1sc(NC(=O)C2CC(=O)N(CCc3c[nH]c4ccc(Cl)cc34)C2)nc1-c1ccccc1 (centres undefined)

[out]
631 s
826 s
917 s
1060 s

Please supply RP-LC retention time for each of the following items, keeping them in order.
1. COc1ccc(OC)c(-c2cc(C(=O)NCCn3cnc(-c4ccccc4)cc3=O)[nH]n2)c1
2. CC(C)C(=O)N1CCN(c2nc(CN3CCCCC3)cs2)CC1
3. CCOc1ccccc1CNC(=O)C1CCCN(c2nccnc2Sc2ccccc2)C1 (centres undefined)
4. Cc1csc(-c2cc(S(=O)(=O)Nc3cc(F)ccc3F)cn2CC(=O)N2CCCC2)n1
5. CCc1cccc(NC(=O)Cn2c(C)nc3c(sc4nc(-c5ccccc5)ccc43)c2=O)c1
6. Cc1noc(C)c1CCC(=O)N1CCc2nn(CC#N)c(=O)n2CC1

[out]
1: 736 s; 2: 603 s; 3: 1110 s; 4: 874 s; 5: 1170 s; 6: 630 s

Give RP-LC retention time for each of the items listed below.
1. O=C1NC2(CCN(C(=O)c3c(F)cccc3F)CC2)N=C1c1cccc(F)c1
2. O=[N+]([O-])c1cccc2cn[nH]c12
3. O=C(COc1ccccc1)N1CCc2[nH]nc(-c3ccccc3)c2C1
4. CCOc1ccc(-c2noc(Cc3nc(-c4ccccc4)cs3)n2)cc1
5. CCc1cccc(NC(=O)CCc2c(C)nc3nc(-c4cc(OC)cc(OC)c4)nn3c2C)c1
6. COC(=O)N1CCN(CCNC(=O)C2(c3ccc(Cl)cc3)CCCC2)CC1

[out]
["815 s", "767 s", "788 s", "1240 s", "970 s", "592 s"]

For every item below, please supply its RP-LC retention time.
1. O=C(NC1CC1)c1ccc(OCC2CCCN(C(=O)c3ccc(F)cc3)C2)cc1 (centres undefined)
2. c1ccc(Cc2nnc3sc(-c4ccc5ccccc5n4)nn23)cc1

[out]
["803 s", "1120 s"]

Cited source: the METLIN SMRT retention time set (Domingo-Almenara et al. 2019)
